- test_protocol: Inhibition of HCV recombinant NS5B polymerase
- Design: species or system Hepacivirus hominis
metric: pIC50
// returns pIC50 (minus log10 of molar concentration), number only

The reported pIC50 of the compound N#Cc1c(O)nsc1Nc1cccc(F)c1 was 6.05

The reported pIC50 of the compound N#Cc1c(O)nsc1Nc1cc(C(=O)O)cc(C(F)(F)F)c1 was 5.82

The reported pIC50 of the compound COC(=O)c1ccc(Cl)cc1Nc1snc(O)c1C#N was 5.33

The reported pIC50 of the compound N#Cc1c(O)nsc1Nc1cccc(S(N)(=O)=O)c1 was 5.01

The reported pIC50 of the compound N#Cc1c(O)nsc1Nc1cc(Br)ccc1OCc1ccccc1 was 6.52

----------
- test_protocol: Inhibition of HCV recombinant NS5B polymerase
- Design: species or system Hepacivirus hominis
So basically every entry gets a class from its IC50, ranges being class 0 (below 1 µM), class 1 (1 µM to below 6 µM), class 2 (6 µM or more)

Answered examples (4):
smiles_record | group_label
N#Cc1c(O)nsc1Nc1cccc(S(=O)(=O)NC23CC4CC(CC(C4)C2)C3)c1 | class 1
COC(=O)c1cc(Nc2snc(O)c2C#N)cc(C(F)(F)F)c1 | class 1
N#Cc1c(O)nsc1Nc1ccc(Cl)cc1Cl | class 0
N#Cc1c(O)nsc1Nc1cc(F)cc(F)c1 | class 0

Band assignment needed for N#Cc1c(O)noc1Nc1cc(Br)cc(Br)c1 please.
class 2

Band assignment needed for N#Cc1c(O)nsc1Nc1cc(Cl)ccc1OCc1ccc2ccccc2c1 please.
class 2

Band assignment needed for N#Cc1c(O)nsc1Nc1nc2ccc(F)cc2s1 please.
class 2

Band assignment needed for N#Cc1c(O)nsc1Nc1ccc(F)cc1 please.
class 1

Band assignment needed for COC(=O)c1ccc(-c2ccc(Cl)cc2Nc2snc(O)c2C#N)o1 please.
class 1

Band assignment needed for CS(=O)(=O)c1cccc(Nc2snc(O)c2C#N)c1 please.
class 2

Band assignment needed for N#Cc1c(O)nsc1Nc1cc(Br)cc(C(F)(F)F)c1 please.
class 0

Band assignment needed for COc1cccc(Nc2snc(O)c2C#N)c1 please.
class 2

----------
- test_protocol: Inhibition of HCV recombinant NS5B polymerase
- Parameters: species or system Hepacivirus hominis
pIC50: −log10 of the molar value.
Returns yes if the recorded pIC50 is greater than or equal to 6, and no otherwise.

Answered examples (3):
smiles_record | group_label
N#Cc1c(O)nsc1Nc1cc(C(F)(F)F)cc(S(=O)(=O)NC23CC4CC(CC(C4)C2)C3)c1 | no
N#Cc1c(O)nsc1Nc1cc(Br)ccc1OCc1ccc2ccccc2c1 | no
N#Cc1c(O)nsc1Nc1cc(Cl)cc(Cl)c1 | yes

Hello, I need to know if Cc1cc(C)cc(Nc2snc(O)c2C#N)c1 has measured pIC50 not below 6. Thanks!
no

Hello, I need to know if N#Cc1c(O)nsc1Nc1cc(C(F)(F)F)cc(C(F)(F)F)c1 has measured pIC50 not below 6. Thanks!
no

Hello, I need to know if N#Cc1c(O)nsc1Nc1cc(Cl)cc(S(=O)(=O)NC23CC4CC(CC(C4)C2)C3)c1 has measured pIC50 not below 6. Thanks!
no

Hello, I need to know if N#Cc1c(O)nsc1Nc1cc(F)ccc1Oc1ccccc1 has measured pIC50 not below 6. Thanks!
yes

Hello, I need to know if CCCCS(=O)(=O)c1cccc(Nc2snc(O)c2C#N)c1 has measured pIC50 not below 6. Thanks!
no
